These data points were gathered from patent US10729749B2.

test: Cell viability assay (Cell Counting Kit-8); format: cell-based; conditions: T30 5 μM + small peptide 0.5 μM; % PC12 cell viability compared to untreated control;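 further: PC12 cells in 96-well plates, WST-8 turned into formazan by cellular dehydrogenases, absorbance read at 450 nm after 2 h with the reagent, signal proportional to living cell number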
Ends that are not written are not given here.
Reported viability values for the following substances.

- SUBSTANCE: "SSYMVHWKAEFHRW [NBP-1410]"
  UOM: "%"
  viability: 93.5
- SUBSTANCE: "MVHWKAEFHRWSS [NBP-1313]"
  UOM: "%"
  viability: 89
- SUBSTANCE: "FHRWSS [NBP-606]"
  UOM: "%"
  viability: 103
- SUBSTANCE: "RWSSYMV [NBP-708, RWSSYMV]"
  UOM: "%"
  viability: 97.8
- SUBSTANCE: "WKAEFH [NBP-602]"
  UOM: "%"
  viability: 108
- SUBSTANCE: "WKAEFHRWSSY [NBP-1102]"
  UOM: "%"
  viability: 104
- SUBSTANCE: "HRWSSYMVHWKAEF [NBP-1407]"
  UOM: "%"
  viability: 90.5
- SUBSTANCE: "AEFHRWSSYMV [NBP-1104]"
  UOM: "%"
  viability: 111
- SUBSTANCE: "WSSYMVHWKAEFHR [NBP-1409]"
  UOM: "%"
  viability: 94.8
- SUBSTANCE: "EFHRWSS [NBP-705, EFHRWSS]"
  UOM: "%"
  viability: 91
- SUBSTANCE: "FHRWSSYMVHWKAE [NBP-1406]"
  UOM: "%"
  viability: 86.6
- SUBSTANCE: "HWKAEFHRWSS [NBP-1101]"
  UOM: "%"
  viability: 91.9
- SUBSTANCE: "HWKAEF [NBP-601, HWKAEF]"
  UOM: "%"
  viability: 93.2
- SUBSTANCE: "YMVHWKAEFHRW [NBP-1212]"
  UOM: "%"
  viability: 88.3
- SUBSTANCE: "MVHWKA [NBP-613, MVHWKA]"
  UOM: "%"
  viability: 103
- SUBSTANCE: "MVHWKAEFHR [NBP-1013]"
  UOM: "%"
  viability: 85.3
- SUBSTANCE: "EFHRWSSYMVHW [NBP-1205]"
  UOM: "%"
  viability: 89.4
- SUBSTANCE: "AEFHRWSS [NBP-804]"
  UOM: "%"
  viability: 108
- SUBSTANCE: "EFHRWSSYMVHWKA [NBP-1405]"
  UOM: "%"
  viability: 83.9
- SUBSTANCE: "HRWSSYMVHWK [NBP-1107]"
  UOM: "%"
  viability: 93.1
- SUBSTANCE: "HRWSSYM [NBP-707]"
  UOM: "%"
  viability: 98.5
- SUBSTANCE: "RWSSYMVHWKAEFH [NBP-1408]"
  UOM: "%"
  viability: 93.6
- SUBSTANCE: "KAEFHR [NBP-603, KAEFHR]"
  UOM: "%"
  viability: 94.8
